System: N. gonorrhoeae WHO L
Test: Liquid broth MIC in Fastidious broth
Conditions: Neisseria gonorrhoeae, read-out: Minimum Inhibitory Concentration (MIC), N. gonorrhoeae WHO L
Catalogue of MIC readings, one per entry.

Previously resolved entries follow.
O=C(CN1CCN(C(=O)NC(C(=O)N[C@H]2Cc3ccc(F)c(C(=O)O)c3OB2O)c2cc(F)c(O)c(O)c2Cl)C(=O)C1=O)NCc1ccccc1 (stereo partly drawn) [Example 238] ... > 64 µg/mL
O=C(O)c1cccc2c1OB(O)[C@@H](NC(=O)C(NC(=O)N1CCN(CC(F)(F)F)C(=O)C1=O)c1ccc(P(=O)(O)O)cc1)C2 (stereo partly drawn) [Example 4] ... 4 to 8 µg/mL

Now for another entry.
Q: May I ask what MIC has been recorded for CS(=O)(=O)N1CCC[C@H]1C(=O)N[C@H](C(=O)N[C@H]1Cc2cccc(C(=O)O)c2OB1O)c1ccc(P(=O)(O)O)cc1 [Example 43] ?
Ans: 16 to 32 µg/mL

* * *

Biological target: A. baumannii PBP1a (Acinetobacter baumannii)
Sequence (A0ABX6CK30 1-851): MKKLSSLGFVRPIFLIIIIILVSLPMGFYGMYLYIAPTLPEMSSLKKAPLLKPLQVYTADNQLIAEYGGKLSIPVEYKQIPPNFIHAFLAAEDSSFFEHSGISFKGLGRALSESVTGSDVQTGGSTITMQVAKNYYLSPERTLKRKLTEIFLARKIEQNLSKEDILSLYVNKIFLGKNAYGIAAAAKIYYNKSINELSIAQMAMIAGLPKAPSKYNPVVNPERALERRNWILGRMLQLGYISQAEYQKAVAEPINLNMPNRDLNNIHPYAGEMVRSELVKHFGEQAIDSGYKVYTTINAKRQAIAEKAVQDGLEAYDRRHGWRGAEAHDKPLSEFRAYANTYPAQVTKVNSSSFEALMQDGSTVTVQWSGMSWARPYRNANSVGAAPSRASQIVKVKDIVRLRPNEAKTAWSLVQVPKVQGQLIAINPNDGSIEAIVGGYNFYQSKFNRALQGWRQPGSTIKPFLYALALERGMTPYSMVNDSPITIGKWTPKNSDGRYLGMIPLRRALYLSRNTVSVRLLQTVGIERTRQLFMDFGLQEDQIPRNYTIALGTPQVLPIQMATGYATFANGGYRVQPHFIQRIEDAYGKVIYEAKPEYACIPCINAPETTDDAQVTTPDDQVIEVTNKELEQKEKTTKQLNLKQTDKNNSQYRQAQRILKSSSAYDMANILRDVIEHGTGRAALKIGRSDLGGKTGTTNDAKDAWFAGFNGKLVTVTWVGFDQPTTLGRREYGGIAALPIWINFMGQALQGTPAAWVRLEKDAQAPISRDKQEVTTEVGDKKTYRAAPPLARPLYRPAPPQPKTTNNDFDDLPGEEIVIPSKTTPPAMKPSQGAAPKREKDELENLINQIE
Test: Bocillin-FL competition binding via gel filtration, A. baumannii PBP1a
Conditions: competition binding assay using Bocillin-FL via gel filtration; read-out: A. baumannii PBP1a Potency
measured property: EC50

O=C(NCCN1CCN(C(=O)NC(C(=O)N[C@H]2Cc3ccc(F)c(C(=O)O)c3OB2O)c2ccc(P(=O)(O)O)cc2)C(=O)C1=O)c1ccc(O)c(O)c1Cl (some centres unmarked) ... 10 to 50 µM
CN(CCN1CCN(C(=O)NC(C(=O)N[C@H]2Cc3ccc(F)c(C(=O)O)c3OB2O)c2cc(F)c(O)c(O)c2Cl)C(=O)C1=O)S(=O)(=O)c1cccc(C(N)=O)c1 (some centres unmarked) ... < 10 µM
O=C(NCCCS(=O)(=O)N1CCN(C(=O)NC(C(=O)N[C@H]2Cc3ccc(F)c(C(=O)O)c3OB2O)c2cc(F)c(O)c(O)c2Cl)C1=O)Nc1ccc(O)cc1 (some centres unmarked) ... < 10 µM
O=C(NCCCN1CCN(C(=O)NC(C(=O)N[C@H]2Cc3ccc(F)c(C(=O)O)c3OB2O)c2cc(F)c(O)c(O)c2Cl)C1=O)Nc1cccnc1 (some centres unmarked) ... 10 to 50 µM

Q: May I ask what EC50 has been recorded for O=C(NCCCS(=O)(=O)N1CCN(C(=O)NC(C(=O)N[C@H]2Cc3ccc(F)c(C(=O)O)c3OB2O)c2cc(F)c(O)c(O)c2Cl)C1=O)c1nccs1 (some centres unmarked) ?
Ans: < 10 µM

* * *

System: N. gonorrhoeae WHO M
Assay: Liquid broth MIC in Fastidious broth
Conditions: Neisseria gonorrhoeae, read-out: Minimum Inhibitory Concentration (MIC), N. gonorrhoeae WHO M
measured property: MIC

O=C(NCCCN1CCN(C(=O)NC(C(=O)N[C@H]2Cc3ccc(F)c(C(=O)O)c3OB2O)c2cc(F)c(O)c(O)c2Cl)C(=O)C1=O)c1nccs1 (stereo partly shown) [Example 211] ... 16 to 32 µg/mL

Q: Lookup: MIC / N. gonorrhoeae WHO M / CC(C)C(=O)NC(C(=O)N[C@H]1Cc2cccc(C(=O)O)c2OB1O)c1ccc(P(=O)(O)O)cc1 (stereo partly shown) [Example 28]
Ans: 4 to 8 µg/mL

Q: Lookup: MIC / N. gonorrhoeae WHO M / CCN1CCN(C(=O)N[C@H](C(=O)N[C@H]2Cc3ccc(F)c(C(=O)O)c3OB2O)c2ccc(P(=O)(O)O)cc2)C(=O)C1=O (single isomer, unassigned) [Example 9]
Ans: < 1 µg/mL

Q: Lookup: MIC / N. gonorrhoeae WHO M / O=C(O)c1cccc2c1OB(O)[C@@H](NC(=O)[C@H](NC(=O)c1cccn(C(F)F)c1=O)c1ccc(P(=O)(O)O)cc1)C2 (single isomer, unassigned) [Example 191]
Ans: < 1 µg/mL

Q: Lookup: MIC / N. gonorrhoeae WHO M / CS(=O)(=O)N1CCN(C(=O)N[C@H](C(=O)N[C@H]2Cc3cccc(C(=O)O)c3OB2O)c2ccc(P(=O)(O)O)cc2)C1=O (single isomer, unassigned) [Example 5]
Ans: < 1 µg/mL

Q: Lookup: MIC / N. gonorrhoeae WHO M / CC(=O)N1CCC[C@H]1C(=O)NC(C(=O)N[C@H]1Cc2cccc(C(=O)O)c2OB1O)c1ccc(P(=O)(O)O)cc1 (stereo partly shown) [Example 65]
Ans: 4 to 8 µg/mL

Q: Lookup: MIC / N. gonorrhoeae WHO M / O=C(NCCN1CCN(C(=O)NC(C(=O)N[C@H]2Cc3ccc(F)c(C(=O)O)c3OB2O)c2cc(F)c(O)c(O)c2Cl)C(=O)C1=O)Nc1cccc(O)c1 (stereo partly shown) [Example 220]
Ans: 4 to 8 µg/mL

Q: Lookup: MIC / N. gonorrhoeae WHO M / O=C(NCCN1CCN(C(=O)NC(C(=O)N[C@H]2Cc3ccc(F)c(C(=O)O)c3OB2O)c2cc(F)c(O)c(O)c2Cl)C(=O)C1=O)c1cccc(O)c1 (stereo partly shown) [Example 215]
Ans: 4 to 8 µg/mL

Data origin: patent US20240270762A1
